system: Voltage-gated inwardly rectifying potassium channel KCNH2 (Homo sapiens) (UniProt Q12809)
Sequence (Q12809 whole entry, looked up): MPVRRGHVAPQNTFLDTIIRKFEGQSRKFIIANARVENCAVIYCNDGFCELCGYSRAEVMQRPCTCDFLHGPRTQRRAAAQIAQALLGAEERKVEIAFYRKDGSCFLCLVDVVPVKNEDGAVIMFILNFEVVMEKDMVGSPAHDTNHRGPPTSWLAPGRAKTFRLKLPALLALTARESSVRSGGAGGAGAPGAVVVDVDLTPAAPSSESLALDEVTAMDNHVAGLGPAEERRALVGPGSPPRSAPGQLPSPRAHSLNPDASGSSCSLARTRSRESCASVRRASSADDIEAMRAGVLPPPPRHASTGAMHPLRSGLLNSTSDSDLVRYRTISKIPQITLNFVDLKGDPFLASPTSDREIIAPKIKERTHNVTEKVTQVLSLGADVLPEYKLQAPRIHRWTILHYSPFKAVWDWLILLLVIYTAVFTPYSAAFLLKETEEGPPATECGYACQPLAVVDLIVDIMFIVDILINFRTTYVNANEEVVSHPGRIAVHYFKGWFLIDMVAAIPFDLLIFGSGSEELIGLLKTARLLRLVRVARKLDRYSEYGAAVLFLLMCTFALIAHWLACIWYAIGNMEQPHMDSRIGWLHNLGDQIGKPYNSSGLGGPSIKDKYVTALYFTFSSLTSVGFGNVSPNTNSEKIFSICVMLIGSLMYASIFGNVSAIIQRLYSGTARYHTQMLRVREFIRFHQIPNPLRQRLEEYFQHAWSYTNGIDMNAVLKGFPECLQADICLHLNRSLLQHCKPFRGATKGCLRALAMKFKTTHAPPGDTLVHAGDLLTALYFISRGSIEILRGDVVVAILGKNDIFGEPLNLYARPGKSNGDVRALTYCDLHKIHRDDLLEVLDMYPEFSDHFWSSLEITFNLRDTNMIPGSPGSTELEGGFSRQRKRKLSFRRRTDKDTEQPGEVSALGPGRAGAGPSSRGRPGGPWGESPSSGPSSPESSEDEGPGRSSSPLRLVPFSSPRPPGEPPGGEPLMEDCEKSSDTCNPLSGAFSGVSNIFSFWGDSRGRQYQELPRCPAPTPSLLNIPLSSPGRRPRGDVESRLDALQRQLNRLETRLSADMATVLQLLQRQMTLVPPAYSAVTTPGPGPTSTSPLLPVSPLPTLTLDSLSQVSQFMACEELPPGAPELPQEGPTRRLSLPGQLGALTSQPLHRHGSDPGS
testProtocol: Human Ether-a-go-go-Related Gene (hERG) channel small molecule antagonists: fluorescence cell-based qHTS assay (AID 1671200); further: nearly all actives have a fitted effect of over 50% in size
experimentalParameters: hERG-U2OS cells, FluxOR thallium flux fluorescence; series mostly up to 76.8 µM
Records with an inconclusive call do not appear. The source made the active and inactive calls. The call rests on the fitted dose curve; in most records, active means well fitted inhibition curve with a large enough effect in the repeat runs; inconclusive means weak or mixed curves; inactive means flat fitted curve, though single readings scatter.
Give one outcome, nothing more. List: active, inactive

Illustrative cases are given below, each with its answer.
>>> cat("O=[N+]([O-])c1c(Cl)c(Cl)cc(Cl)c1Cl")
"inactive"
>>> cat("ClC1=C(Cl)[C@]2(Cl)[C@@H]3[C@@H](Cl)[C@H]4O[C@H]4[C@@H]3C1(Cl)C2(Cl)Cl")
"active"
>>> cat("CC1COC(Cn2cncn2)(c2ccc(Oc3ccc(Cl)cc3)cc2Cl)O1 (stereo not drawn)")
"active"

IN: Hi, do you know how `CC(c1ccccc1)(c1ccc(O)cc1)c1ccc(O)cc1` came out in this test?
OUT: inactive

IN: Hi, do you know how c1ccc2c(c1)Sc1ccccc1N2CC1CN2CCC1CC2 (stereo not drawn) came out in this test?
OUT: active

IN: Hi, do you know how `Cc1ccc(N(SC(F)(Cl)Cl)S(=O)(=O)N(C)C)cc1` came out in this test?
OUT: active

IN: Hi, do you know how `CN1CSC(=S)N(C)C1` came out in this test?
OUT: inactive

IN: Hi, do you know how `N#Cc1cc([N+](=O)[O-])ccc1N` came out in this test?
OUT: inactive

* * *

testProtocol: qHTS assay for small molecule disruptors of the mitochondrial membrane potential - cell viability (AID 720634);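 further: human HepG2 liver cancer cells; nearly all actives have a fitted effect of over 20% in size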
experimentalParameters: HepG2 viability, ATP luminescence (CellTiter-Glo), 1 h; series mostly up to 83.2 µM
Procedure: U.S. Tox21 Program National Center for Advancing Translational Sciences [NCATS] NIH Chemical Genomics Center [NCGC] U.S. Environmental Protection Agency [EPA] National Institutes of Environmental Health Sciences [NIEHS] National Toxicology Program [NTP] […] Measuring MMP in living cells is commonly used to assess the effect of chemicals on mitochondrial function; decreases in MMP can be detected using lipophilic cationic fluorescent dyes. […] The cytotoxicity was measured in the same assay well of MMP assay. […]
Inconclusive results are not listed. Activity calls are given as the source filed them. Calls come from the whole dose curve.
observable: outcome

Use these answered entries as a reference point.
>>> measvalue("CC(C)C[C@H]1C(=O)N2CCC[C@H]2[C@]2(O)O[C@](NC(=O)[C@@H]3C[C@@H]4c5cccc6[nH]cc(c56)C[C@H]4N(C)C3)(C(C)C)C(=O)N12")
"inactive"
>>> measvalue("Cc1nnc2n1-c1ccc(Cl)cc1C(c1ccccc1Cl)=NC2")
"inactive"
>>> measvalue("O[C@H]1[C@H]2[C@H](O)CCCN2C[C@H]1O")
"inactive"
>>> measvalue("CN1C(=O)CC(=O)N(c2ccccc2)c2cc(Cl)ccc21")
"inactive"
>>> measvalue("N#CC(C#N)=Cc1cc(O)c(O)c(O)c1")
"inactive"
>>> measvalue("C[C@]12CC[C@@H]3c4ccc(OC(=O)N(CCCl)CCCl)cc4CC[C@H]3[C@@H]1CC[C@@H]2OP(=O)(O)O")
"inactive"
>>> measvalue("CN1CSC(=S)N(C)C1")
"inactive"
>>> measvalue("CO[C@H]1[C@@H](O)C[C@H](O[C@H]2[C@@H](O)C[C@H](O[C@H]3[C@@H](O)C[C@H](O[C@H]4CC[C@@]5(C)[C@H](CC[C@@H]6[C@@H]5C[C@@H](O)[C@]5(C)[C@@H](C7=CC(=O)OC7)CC[C@]65O)C4)O[C@@H]3C)O[C@@H]2C)O[C@@H]1C")
"inactive"

IN: Assign outcome to the following record: O=P1(N(CCCl)CCCl)NC(OO)CCO1 (centres undefined)
OUT: inactive

IN: Assign outcome to the following record: `Oc1ccc2c3c1O[C@H]1[C@@H](O)CC[C@@]4(O)[C@@H](C2)N(CC2CCC2)CC[C@]314`
OUT: inactive

IN: Assign outcome to the following record: `CC(C)[C@H]1C(=O)N2CCC[C@H]2[C@]2(O)O[C@](NC(=O)[C@@H]3C[C@@H]4c5cccc6[nH]cc(c56)C[C@H]4N(C)C3)(C(C)C)C(=O)N12`
OUT: inactive

All figures here come from PubChem BioAssay (Tox21).
